The values you see were collected from ChEMBL document CHEMBL5053556.

- assay_target: Dihydroorotate dehydrogenase (quinone), mitochondrial (Homo sapiens, UniProt Q02127)
- Sequence (Q02127 whole entry): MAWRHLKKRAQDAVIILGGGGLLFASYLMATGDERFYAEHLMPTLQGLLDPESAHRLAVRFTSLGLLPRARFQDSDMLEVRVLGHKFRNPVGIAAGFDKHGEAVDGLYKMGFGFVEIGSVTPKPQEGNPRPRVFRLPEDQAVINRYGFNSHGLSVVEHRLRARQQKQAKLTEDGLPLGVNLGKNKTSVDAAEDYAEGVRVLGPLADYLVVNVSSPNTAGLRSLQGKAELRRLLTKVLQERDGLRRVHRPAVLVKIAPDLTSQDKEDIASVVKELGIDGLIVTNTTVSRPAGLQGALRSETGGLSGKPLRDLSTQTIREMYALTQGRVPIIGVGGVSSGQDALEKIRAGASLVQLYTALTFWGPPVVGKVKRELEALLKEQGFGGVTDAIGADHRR
- test_parameters: dose 100.0 nM, time 30.0 min
measure_name: inhibition (%)

Some molecules with known inhibition results, for comparison:
Lab book: inhibition of `C/C(O)=C(\C#N)C(=O)Nc1cc(O[C@@H](C)C(F)(F)F)c(C(=O)Nc2c(Cl)cccc2Cl)cc1F` noted as 96.4

Lab book: inhibition of `COc1cccc(-c2cc(F)c(Nc3ncccc3C(=O)O)c(F)c2)c1` noted as 66.8

Lab book: inhibition of `C/C(O)=C(\C#N)C(=O)Nc1cc(OC(C)C)c(C(=O)Nc2c(F)cccc2Br)cc1F` noted as 85.4

Lab book: inhibition of `C/C(O)=C(\C#N)C(=O)Nc1cc(OC(C)C)c(C(=O)Nc2ccccc2F)cc1F` noted as 23

Lab book: inhibition of `COc1cccc(NC(=O)c2cc(F)c(NC(=O)/C(C#N)=C(/C)O)cc2OC(C)C)c1` noted as 21.3

[P] COc1cc(NC(=O)/C(C#N)=C(/C)O)c(F)cc1C(=O)Nc1c(F)cccc1Cl
[Q] C/C(O)=C(\C#N)C(=O)Nc1cc(F)c(C(=O)Nc2c(F)cccc2Cl)cc1F
[R] COc1ccccc1NC(=O)c1cc(F)c(NC(=O)/C(C#N)=C(/C)O)cc1OC(C)C
[S] CCOc1cc(NC(=O)/C(C#N)=C(/C)O)c(F)cc1C(=O)Nc1c(F)cccc1F
Exam item: Ordering criterion: inhibition; begin with the maximum. Record the ranking as a list of labels in the requested order.
Marked response: P, S, Q, R

----------
- System: MV4-11
- experiment: Antiproliferative activity against human MV4-11 cells assessed as cell growth inhibition incubated for 96 hrs by MTT assay
- Format: functional, cell-based
- test_parameters: MV4-11, 96 h
measure_name: pIC50
// pIC50: -log10(molar conc.)

Lab book: pIC50 of `C/C(O)=C(\C#N)C(=O)Nc1cc(O[C@@H](C)C(F)(F)F)c(C(=O)Nc2c(F)cccc2Cl)cc1F` noted as 7.70

Okay, next one:
Lab book: pIC50 of `C/C(O)=C(\C#N)C(=O)Nc1cc(O[C@@H](C)C(F)(F)F)c(C(=O)Nc2c(F)cccc2F)cc1F` noted as 7.70

----------
pIC50: −log10 of the molar value.
These compounds were tested on Dihydroorotate dehydrogenase (quinone), mitochondrial (Homo sapiens); pIC50 is the recorded read-out.
measure_name: pIC50

Some compounds with known pIC50 results, for comparison:
pIC50 for Dihydroorotate dehydrogenase (quinone), mitochondrial (Homo sapiens) with input `COc1cc(NC(=O)/C(C#N)=C(/C)O)c(F)cc1C(=O)Nc1c(F)cccc1Br` equals 7.53

pIC50 for Dihydroorotate dehydrogenase (quinone), mitochondrial (Homo sapiens) with input `C/C(O)=C(\C#N)C(=O)Nc1cc(OC(C)C)c(C(=O)Nc2c(Cl)cccc2Cl)cc1F` equals 7.88

pIC50 for Dihydroorotate dehydrogenase (quinone), mitochondrial (Homo sapiens) with input `C/C(O)=C(\C#N)C(=O)Nc1cc(O[C@@H](C)C(F)(F)F)c(C(=O)Nc2c(F)cccc2Cl)cc1F` equals 8.16

pIC50 for Dihydroorotate dehydrogenase (quinone), mitochondrial (Homo sapiens) with input `C/C(O)=C(\C#N)C(=O)Nc1cc(O[C@@H](C)C(F)(F)F)c(C(=O)Nc2c(F)cccc2F)cc1F` equals 7.80

pIC50 for Dihydroorotate dehydrogenase (quinone), mitochondrial (Homo sapiens) with input `CCOc1cc(NC(=O)/C(C#N)=C(/C)O)c(F)cc1C(=O)Nc1c(F)cccc1Br` equals 7.40

[1] CCOc1cc(NC(=O)/C(C#N)=C(/C)O)c(F)cc1C(=O)Nc1c(F)cccc1Cl
[2] C/C(O)=C(\C#N)C(=O)Nc1cc(O[C@@H](C)C(F)(F)F)c(C(=O)Nc2c(Br)cccc2Br)cc1F
Exam item: Kindly compare 1 with 2 and tell me which has the lower pIC50 figure. The response must carry the label of the picked entry.
Marked response: 1
(1: 7.36, 2: 8.14)
